# assayTarget: human PDE10A (UniProt Q9Y233)
# Sequence (Q9Y233 290-1055 limits assumed): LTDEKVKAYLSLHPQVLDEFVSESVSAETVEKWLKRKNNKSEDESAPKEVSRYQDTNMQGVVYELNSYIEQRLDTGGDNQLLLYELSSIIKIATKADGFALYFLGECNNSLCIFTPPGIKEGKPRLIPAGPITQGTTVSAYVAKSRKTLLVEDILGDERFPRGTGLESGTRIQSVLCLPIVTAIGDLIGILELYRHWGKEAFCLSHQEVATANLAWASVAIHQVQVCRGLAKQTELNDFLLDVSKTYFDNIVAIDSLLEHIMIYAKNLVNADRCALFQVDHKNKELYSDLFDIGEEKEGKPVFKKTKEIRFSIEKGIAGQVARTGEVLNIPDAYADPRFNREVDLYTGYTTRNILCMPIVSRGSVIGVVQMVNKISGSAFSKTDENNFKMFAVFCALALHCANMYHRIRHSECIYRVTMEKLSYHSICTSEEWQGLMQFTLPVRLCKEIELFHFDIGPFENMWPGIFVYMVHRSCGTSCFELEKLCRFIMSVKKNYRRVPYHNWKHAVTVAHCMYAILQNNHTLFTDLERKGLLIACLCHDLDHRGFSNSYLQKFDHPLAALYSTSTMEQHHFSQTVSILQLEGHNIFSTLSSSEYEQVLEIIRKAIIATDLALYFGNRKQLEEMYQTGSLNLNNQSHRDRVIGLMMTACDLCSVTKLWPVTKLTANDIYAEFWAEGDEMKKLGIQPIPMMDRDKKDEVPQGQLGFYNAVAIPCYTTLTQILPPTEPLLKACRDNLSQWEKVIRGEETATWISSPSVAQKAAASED
# testProtocol: Measurement of PDE activity (recombinant enzyme, HTRF cAMP kit)
# Assay type: biochemical
# testContext: Table 1, substrate 20 nM for PDE10, 60 minutes at 29 C, read-out: IC50
observedProperty: IC50

{"structureAsSmiles": "CN(CC1(C)COC1)c1cccc2cnn(CCc3cn4ccccc4n3)c(=O)c12", "IC50": "0.2 to 0.5 µM"}
{"structureAsSmiles": "O=c1c2c(-c3ccc4cc[nH]c4c3)cccc2cnn1CCc1ccc2ccccc2n1", "IC50": "0.2 to 0.5 µM"}

Determine its reported IC50: "CC1(CNc2cccc3cnn(CCc4cn5ccccc5n4)c(=O)c23)COC1"
< 0.1 µM

Determine its reported IC50: "Cc1cc2ccccc2nc1/C=C/n1ccc2scc(-c3ccncc3)c2c1=O"
< 0.1 µM

---

# assayTarget: UniProt Q9Y233
# testProtocol: Measurement of PDE activity (recombinant enzyme, HTRF cAMP kit)
# Assay type: biochemical
# testContext: Table 1, substrate 20 nM for PDE10, 60 minutes at 29 C, read-out: IC50
pIC50: −log10 of the molar value. Structures can show the parent of a compound that is named as a salt.
The reader will find reported pIC50 values listed item by item below.

Check out these entries, answers already filled in.
{"compound": "O=c1c2c(-c3ccncc3)ccnc2cnn1[C@@H]1C[C@H]1c1ccc2ccccc2n1 (relative stereo) [Example 277]", "result": "> 7.00"}
{"compound": "O=c1c2c(-c3cncnc3)csc2ccn1C1CC1c1ccc2ccccc2n1 (stereo not drawn) [compound 282]", "result": "> 7.00"}
{"compound": "O=c1c2c(OCC3COC(CO)CO3)cccc2cnn1CCc1cn2ccccc2n1 (stereo not drawn) [compound 378]", "result": "6.30 to 6.70"}
{"compound": "O=c1c2c(-c3cncnc3)csc2cnn1CCc1ccc2ccccc2n1 [Example 37]", "result": "> 7.00"}

Specify the recorded pIC50 for O=c1c2c(N3CCC[C@@H](O)C3)cccc2cnn1CCc1cn2ccccc2n1 [compound 332] , system: UniProt Q9Y233.
6.30 to 6.70

Specify the recorded pIC50 for O=c1c2c(-c3ccnnc3)cccc2ccn1C1CC1c1ccc2ccccc2n1 (single isomer, unassigned) [Example 236] , system: UniProt Q9Y233.
> 7.00

Specify the recorded pIC50 for O=c1c2c(-c3ccncc3)csc2c(-c2ccncc2)nn1CCc1ccccn1 [Example 5] , system: UniProt Q9Y233.
> 7.00

Specify the recorded pIC50 for O=c1c2c(-c3ccnc(C(F)(F)F)c3)cccc2cnn1CCc1cn2ccccc2n1 [compound 348] , system: UniProt Q9Y233.
6.70 to 7.00

Specify the recorded pIC50 for O=c1c2c(N3CCC4(COC4)C3)cccc2cnn1CCc1cn2ccccc2n1 [compound 339] , system: UniProt Q9Y233.
> 7.00

Specify the recorded pIC50 for O=c1c2cccc(N3CCOCC3)c2cnn1CCc1ccc2ccccc2n1 [compound 397, hydrochloride] , system: UniProt Q9Y233.
> 7.00

---

# assayTarget: human PDE10A (UniProt Q9Y233)
# testProtocol: Measurement of PDE activity (recombinant enzyme, HTRF cAMP kit)
# Format: biochemical
# testContext: Table 1, substrate 20 nM for PDE10, 60 minutes at 29 C, read-out: IC50
pIC50: −log10 of the molar value. Where a name gives a salt, the structure may show the parent alone.
The reader will find reported pIC50 values listed item by item below.

Check out these entries, answers already filled in.
{"compound": "O=c1c2c(N[C@@H]3CCOC3)cccc2cnn1CCc1cn2ccccc2n1 [compound 377]", "pIC50": "> 7.00"}
{"compound": "C=C(Cn1ncc2nccc(-c3ccncc3)c2c1=O)c1ccc2ccccc2n1 [Example 234]", "pIC50": "> 7.00"}
{"compound": "O=c1c2c(-c3ccncc3)csc2ccn1CCc1ccc2ccccc2n1 [Example 205, hydrochloride]", "pIC50": "> 7.00"}
{"compound": "O=c1c2cccc(-c3cncnc3)c2cnn1CCc1ccc2ccccc2n1 [Example 193, hydrochloride]", "pIC50": "> 7.00"}
{"compound": "O=c1c2c(-c3ccnnc3)cccc2cnn1CCc1cn2ccccc2n1 [compound 344]", "pIC50": "6.70 to 7.00"}

Determine its reported pIC50: O=c1c2c(-c3ccncc3)coc2ccn1CCc1nc2ccccc2[nH]1 [Example 229, hydrochloride]
> 7.00

Determine its reported pIC50: O=c1c2c(-c3cncnc3)cccc2ccn1[C@@H]1C[C@H]1c1ccc2cc(F)ccc2n1 (relative stereo) [Example 273]
> 7.00

Determine its reported pIC50: O=c1c2ccsc2c(-c2ccncc2)nn1CCc1ccc2ccccc2n1 [Example 2]
> 7.00

Determine its reported pIC50: O=c1c2c(N3CC4COCC4C3)cccc2ccn1C1CC1c1ccc2ccccc2n1 (single isomer, unassigned) [Example 259]
> 7.00

Determine its reported pIC50: Cc1cc2ccccc2nc1CCn1ccc2scc(-c3ccncc3)c2c1=O [compound 306]
> 7.00

Determine its reported pIC50: O=c1c2c(-c3ccccc3Cl)cccc2cnn1CCc1ccc2ccccc2n1 [Example 108]
6.30 to 6.70

Determine its reported pIC50: O=c1c2c(-c3ccc4c(c3)OCO4)csc2cnn1CCc1ccc2ccccc2n1 [Example 54]
6.70 to 7.00
